Let's look at some molecules and their measured pIC50.
# target under test: p70S6K (Homo sapiens, UniProt P23443)
# Sequence (P23443 whole entry): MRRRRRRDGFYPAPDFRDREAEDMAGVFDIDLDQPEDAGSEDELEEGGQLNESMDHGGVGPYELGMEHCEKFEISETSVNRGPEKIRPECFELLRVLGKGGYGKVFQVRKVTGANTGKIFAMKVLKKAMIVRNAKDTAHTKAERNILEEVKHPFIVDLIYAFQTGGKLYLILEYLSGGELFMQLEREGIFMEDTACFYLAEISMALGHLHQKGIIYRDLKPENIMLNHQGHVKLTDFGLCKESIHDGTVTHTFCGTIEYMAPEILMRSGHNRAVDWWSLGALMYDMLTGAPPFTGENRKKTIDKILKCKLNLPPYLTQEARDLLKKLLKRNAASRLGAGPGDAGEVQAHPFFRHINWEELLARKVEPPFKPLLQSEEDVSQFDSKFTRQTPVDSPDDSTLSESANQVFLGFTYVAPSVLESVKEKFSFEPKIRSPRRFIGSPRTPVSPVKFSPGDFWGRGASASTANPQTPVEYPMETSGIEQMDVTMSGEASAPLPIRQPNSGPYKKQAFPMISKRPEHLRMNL
# assay notes: Luciferase-coupled chemiluminescence kinase assay (ATP consumption)
# Format: biochemical
# experimental parameters: Table 1; class symbols per key
pIC50: −log10 of the molar value.

# smiles representation, pIC50
measured = [
    ("CON(C)C(=O)c1cc(NCCN2CCCC2)c(C)c(N2CCN(c3ncnc4[nH]nc(Br)c34)CC2)c1", "> 7.00"),
    ("Cc1ccc(-c2ccccc2OCCCN2CCOCC2)cc1N1CCN(c2ncnc3[nH]nc(Br)c23)CC1", "> 7.00"),
    ("Cc1ccc(C(=O)N(C)C)cc1N1CCN(c2ncnc3[nH]nc(Br)c23)CC1", "> 7.00"),
    ("Fc1ccc(F)c(N2CCN(c3ncnc4[nH]nc(Br)c34)CC2)c1", "> 7.00"),
    ("Fc1ccc(N2CCN(c3ncnc4[nH]nc(Br)c34)CC2)cc1F", "6.00 to 7.00"),
    ("C#Cc1cc(NCCN2CCCC2)c(C)c(N2CCN(c3ncnc4[nH]nc(Br)c34)CC2)c1", "> 7.00"),
    ("Cc1ccc(C(=O)NCc2ccccc2)cc1N1CCN(c2ncnc3[nH]nc(Br)c23)C[C@@H]1C", "> 7.00"),
    ("CN(C)CCOc1nccnc1N1CCN(c2ncnc3[nH]nc(Br)c23)CC1", "6.00 to 7.00"),
]

---

# target under test: p70S6K (Homo sapiens)
# assay notes: Luciferase-coupled chemiluminescence kinase assay (ATP consumption)
# Assay type: biochemical

# compound, IC50
data = [
    ("Cc1ccc(Cl)cc1N1CCN(c2nc(C(C)C)nc3[nH]ncc23)CC1 [Entry 326]", "1000 to 10000 nM"),
    ("CCc1n[nH]c2ncnc(N3CCN(c4ccc(OCCN5CCCCC5)c(Cl)c4)CC3)c12 [Entry 350]", "1000 to 10000 nM"),
    ("CCc1n[nH]c2ncnc(N3CCN(c4cc(Cl)ccc4OC)CC3)c12 [Entry 334]", "< 100 nM"),
    ("CCc1n[nH]c2ncnc(N3CCN(c4cc(Cl)cc(C(=O)N5CCN(C)CC5)c4OC)CC3)c12 [Entry 375]", "100 to 1000 nM"),
    ("CCc1n[nH]c2ncnc(N3CCCN(c4cccc(Cl)c4)CC3)c12 [Entry 343]", "100 to 1000 nM"),
    ("Clc1ccc(N2CCN(c3ncnc4[nH]ccc34)CC2)cc1 [Entry 310]", "1000 to 10000 nM"),
    ("CCc1n[nH]c2ncnc(N3CCN(c4cc(Cl)c(OCCN(C)C)cc4C)CC3)c12 [Entry 389]", "100 to 1000 nM"),
    ("Cc1ccc(Cl)cc1N1CCN(c2ncnc3[nH]nc(C#CCN4CCCC4)c23)CC1 [Entry 397]", "100 to 1000 nM"),
    ("Fc1ccc(N2CCN(c3ncnc4[nH]ccc34)CC2)cc1 [Entry 312]", "100 to 1000 nM"),
    ("Cc1ccc(Cl)cc1N1CCN(c2ncnc3[nH]nc(/C=C/C(=O)O)c23)CC1 [Entry 369]", "< 100 nM"),
    ("Cc1ccc(Cl)cc1N1CCN(c2ncnc3[nH]nc(-c4ccc(Oc5ccccc5)cc4)c23)CC1 [Entry 358]", "100 to 1000 nM"),
    ("CCc1n[nH]c2ncnc(N3CCN(c4cccc(Cl)c4)C(C(=O)NC)C3)c12 (stereo not drawn) [Entry 353]", "100 to 1000 nM"),
    ("CCc1n[nH]c2ncnc(N3CCN(c4cc(Cl)cc(CN(C)C)c4OC)CC3)c12 [Entry 377]", "100 to 1000 nM"),
    ("Cc1ccccc1N1CCN(c2ncnc3[nH]nc(C)c23)CC1 [Entry 319]", "< 100 nM"),
    ("CCc1nc(N2CCN(c3cc(Cl)ccc3C)CC2)c2cn[nH]c2n1 [Entry 325]", "1000 to 10000 nM"),
    ("Cc1ccc(Cl)cc1N1CCN(c2ncnc3[nH]nc(C4=CCNCC4)c23)CC1 [Entry 401]", "< 100 nM"),
    ("CCc1n[nH]c2ncnc(N3CCN(c4cc(Cl)cc(CO)c4OC)CC3)c12 [Entry 367]", "< 100 nM"),
    ("Cc1ccc(Cl)cc1N1CCN(c2ncnc3[nH]nc(-c4ccncc4)c23)CC1 [Entry 364]", "< 100 nM"),
]

---

The following molecules are shown together with reported pIC50 values.
# target under test: AktK (Homo sapiens, UniProt P31749)
# Sequence (P31749 whole entry): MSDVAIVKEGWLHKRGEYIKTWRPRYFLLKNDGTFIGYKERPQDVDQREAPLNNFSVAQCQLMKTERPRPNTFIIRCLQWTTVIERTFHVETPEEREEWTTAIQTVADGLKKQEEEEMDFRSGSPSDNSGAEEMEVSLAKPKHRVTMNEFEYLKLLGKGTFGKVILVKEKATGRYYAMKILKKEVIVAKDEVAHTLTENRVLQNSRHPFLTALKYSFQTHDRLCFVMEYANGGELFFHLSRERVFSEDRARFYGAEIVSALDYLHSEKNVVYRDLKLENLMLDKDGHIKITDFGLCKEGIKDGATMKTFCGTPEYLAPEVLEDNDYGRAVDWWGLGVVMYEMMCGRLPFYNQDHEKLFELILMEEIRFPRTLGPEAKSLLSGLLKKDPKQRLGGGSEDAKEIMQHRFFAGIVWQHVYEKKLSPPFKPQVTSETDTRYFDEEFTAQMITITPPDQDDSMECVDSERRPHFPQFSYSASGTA
# assay notes: Luciferase-coupled chemiluminescence kinase assay (ATP consumption)
# Format: biochemical
# experimental parameters: Table 1; class symbols per key; read-out: AKT-1 IC50
pIC50: −log10 of the molar value.

# molecule, target under test, pIC50
data = [
    ("Cc1c(OCCCN2CCCC2)cc(Cl)cc1N1CCN(c2ncnc3[nH]nc(Br)c23)CC1", "AktK (Homo sapiens, UniProt P31749)", "> 7.00"),
    ("Cc1cccc(C)c1N1CCN(c2ncnc3[nH]nc(Br)c23)CC1", "AktK (Homo sapiens, UniProt P31749)", "≤ 5.00"),
    ("Fc1ccc(F)c(N2CCN(c3ncnc4[nH]nc(Br)c34)CC2)c1", "AktK (Homo sapiens, UniProt P31749)", "≤ 5.00"),
    ("CCOCc1cc(NCCN2CCCC2)c(C)c(N2CCN(c3ncnc4[nH]nc(Br)c34)CC2)c1", "AktK (Homo sapiens, UniProt P31749)", "> 7.00"),
    ("Fc1cc(NCCN2CCCC2)c(Cl)c(N2CCN(c3ncnc4[nH]nc(Br)c34)CC2)c1", "AktK (Homo sapiens, UniProt P31749)", "6.00 to 7.00"),
    ("N#Cc1ccccc1N1CCN(c2ncnc3[nH]nc(Br)c23)CC1", "AktK (Homo sapiens, UniProt P31749)", "≤ 5.00"),
    ("Cc1ccc(C(=O)Nc2ccccc2)cc1N1CCN(c2ncnc3[nH]nc(Br)c23)C[C@@H]1CO", "AktK (Homo sapiens, UniProt P31749)", "> 7.00"),
    ("Cc1c(NCCN2CCCC2)cc(OCC2CCCO2)cc1N1CCN(c2ncnc3[nH]nc(Br)c23)CC1 (stereo not drawn)", "AktK (Homo sapiens, UniProt P31749)", "> 7.00"),
    ("CCc1n[nH]c2ncnc(N3CCN(c4cc(OCC(F)(CF)CF)cc(NCCN5CCCC5)c4C)CC3)c12", "AktK (Homo sapiens, UniProt P31749)", "> 7.00"),
    ("Cc1c(OCCCN2CCCC2)cc(Cl)cc1N1CCN(c2ncnc3[nH]nc(C(F)(F)F)c23)CC1", "AktK (Homo sapiens, UniProt P31749)", "6.00 to 7.00"),
    ("O=C1COc2ccc(-c3ccnc(N4CCN(c5ncnc6[nH]nc(Br)c56)CC4)n3)cc2N1", "AktK (Homo sapiens, UniProt P31749)", "5.00 to 6.00"),
    ("CCc1n[nH]c2ncnc(N3CCN(c4cc(Cl)cc(OC)c4C)CC3)c12", "AktK (Homo sapiens, UniProt P31749)", "≤ 5.00"),
    ("CC(C)CCNc1c(F)c(F)nc(N2CCN(c3ncnc4[nH]nc(Br)c34)CC2)c1F", "AktK (Homo sapiens, UniProt P31749)", "5.00 to 6.00"),
    ("CON(C)C(=O)c1cc(NCCN2CCCC2)c(C)c(N2CCN(c3ncnc4[nH]nc(Br)c34)CC2)c1", "AktK (Homo sapiens, UniProt P31749)", "6.00 to 7.00"),
    ("CCN1CCN(CCOc2cc(Cl)cc(N3CCN(c4ncnc5[nH]nc(C(F)(F)F)c45)CC3)c2C)CC1", "AktK (Homo sapiens, UniProt P31749)", "6.00 to 7.00"),
    ("Cc1c(NCCN2CCCC2)cc(CCC(C)(C)C)cc1N1CCN(c2ncnc3[nH]nc(Br)c23)CC1", "AktK (Homo sapiens, UniProt P31749)", "> 7.00"),
    ("CCOC(=O)c1cnc(C(F)(F)F)nc1N1CCN(c2ncnc3[nH]nc(CC)c23)CC1", "AktK (Homo sapiens, UniProt P31749)", "≤ 5.00"),
    ("Brc1n[nH]c2ncnc(N3CCN(c4cnccn4)CC3)c12", "AktK (Homo sapiens, UniProt P31749)", "≤ 5.00"),
    ("CCCC(F)(F)c1cc(NCCN2CCCC2)c(C)c(N2CCN(c3ncnc4[nH]nc(Br)c34)CC2)c1", "AktK (Homo sapiens, UniProt P31749)", "> 7.00"),
    ("Cc1nc(-c2cc(NCCN3CCCC3)c(C)c(N3CCN(c4ncnc5[nH]nc(Br)c45)CC3)c2)no1", "AktK (Homo sapiens, UniProt P31749)", "> 7.00"),
    ("Clc1ccc(-c2ccccc2OCCN2CCCC2)cc1N1CCN(c2ncnc3[nH]nc(Br)c23)CC1", "AktK (Homo sapiens, UniProt P31749)", "> 7.00"),
    ("Cc1c(NCCN2CCCC2)cc(C(=O)Nc2ccc(Cl)cc2)cc1N1CCN(c2ncnc3[nH]nc(Br)c23)CC1", "AktK (Homo sapiens, UniProt P31749)", "> 7.00"),
    ("Cc1c(OCCN2CCN(C)CC2)cc(Cl)cc1N1CCN(c2ncnc3[nH]nc(Br)c23)CC1", "AktK (Homo sapiens, UniProt P31749)", "6.00 to 7.00"),
    ("Cc1c(NCCN2CCCC2)cc(Cl)cc1N1CCN(c2ncnc3[nH]nc(CC(C)C)c23)CC1", "AktK (Homo sapiens, UniProt P31749)", "6.00 to 7.00"),
    ("FC(F)(F)c1ccnc(N2CCN(c3ncnc4[nH]nc(Br)c34)CC2)c1", "AktK (Homo sapiens, UniProt P31749)", "≤ 5.00"),
    ("Fc1ccc(N2CCN(c3ncnc4[nH]nc(Br)c34)CC2)cc1Cl", "AktK (Homo sapiens, UniProt P31749)", "5.00 to 6.00"),
    ("Cc1ccc(C(=O)Nc2ccccc2)cc1N1CCN(c2ncnc3[nH]nc(Br)c23)CC1", "AktK (Homo sapiens, UniProt P31749)", "> 7.00"),
    ("CCc1n[nH]c2ncnc(N3CCN(c4cc(Cl)cc(OCCN5CCN(CC)CC5)c4C)CC3)c12", "AktK (Homo sapiens, UniProt P31749)", "5.00 to 6.00"),
    ("FC(F)(F)c1cc(N2CCN(c3ncnc4[nH]nc(Br)c34)CC2)c2ccccc2n1", "AktK (Homo sapiens, UniProt P31749)", "≤ 5.00"),
    ("Cc1c(OCCCN2CCN(C)CC2)cc(Cl)cc1N1CCN(c2ncnc3[nH]nc(Br)c23)CC1", "AktK (Homo sapiens, UniProt P31749)", "> 7.00"),
    ("COC(=O)c1cc(NCCN2CCCC2)c(C)c(N2CCN(c3ncnc4[nH]nc(Br)c34)CC2)c1", "AktK (Homo sapiens, UniProt P31749)", "> 7.00"),
    ("N#Cc1cccnc1N1CCN(c2ncnc3[nH]nc(Br)c23)CC1", "AktK (Homo sapiens, UniProt P31749)", "≤ 5.00"),
    ("Cc1c(NCCN(C)C(C)C)cc(Cl)cc1N1CCN(c2ncnc3[nH]nc(Br)c23)CC1", "AktK (Homo sapiens, UniProt P31749)", "> 7.00"),
]
